Measured inhibition values are reported for all entries that follow.
- tgt: 6-phosphogluconate dehydrogenase, decarboxylating (Homo sapiens) (UniProt P52209)
- Sequence (P52209 whole entry, looked up): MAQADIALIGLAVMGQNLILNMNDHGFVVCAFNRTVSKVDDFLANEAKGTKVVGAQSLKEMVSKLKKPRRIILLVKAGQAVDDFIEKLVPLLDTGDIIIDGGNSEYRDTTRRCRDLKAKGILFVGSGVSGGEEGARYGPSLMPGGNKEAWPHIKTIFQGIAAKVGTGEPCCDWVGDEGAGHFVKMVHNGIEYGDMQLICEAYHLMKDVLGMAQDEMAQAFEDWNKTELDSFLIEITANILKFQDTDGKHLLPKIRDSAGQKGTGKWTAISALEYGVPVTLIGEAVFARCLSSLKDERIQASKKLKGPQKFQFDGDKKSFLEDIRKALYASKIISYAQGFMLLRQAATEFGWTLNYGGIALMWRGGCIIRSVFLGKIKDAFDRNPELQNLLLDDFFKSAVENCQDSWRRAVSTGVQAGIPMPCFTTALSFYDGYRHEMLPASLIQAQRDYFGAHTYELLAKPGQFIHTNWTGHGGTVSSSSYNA
- experimental-details: 6PGD enzyme inhibitors, primary screen, biochemical, human, recombinant enzyme, NADPH absorbance (AID 1159550)
- condition-details: recombinant 6PGD, NADPH absorbance 341 nm; at 10 µM; active compounds read high
Only the number, expressed in %, is required.

>>> measured("C=C(C)C1CC=C(CO)CC1 (stereo not drawn)")
1.85

Data point: COc1c(Cl)ccc(Cl)c1C(=O)O ; inhibition = 7.71

Data point: C=C1C(=O)O[C@@H]2C[C@@]3(C)CCC[C@H](C)C3=C[C@H]12 ; inhibition = 8.8

Data point: COc1cc([C@@H]2c3cc4c(cc3[C@@H](O[C@@H]3O[C@@H]5CO[C@@H](c6cccs6)O[C@H]5[C@H](O)[C@H]3O)[C@H]3COC(=O)[C@H]23)OCO4)cc(OC)c1O ; inhibition = -2.92

Data point: O=c1cc(-c2ccc(O)cc2)oc2cc(O)cc(O)c12 ; inhibition = -0.0494

Data point: C[C@@H]1CC[C@@]2(OC1)O[C@H]1C[C@H]3[C@@H]4CC=C5C[C@@H](O)CC[C@]5(C)[C@H]4CC[C@]3(C)[C@H]1[C@@H]2C ; inhibition = 10.6
